System: blackgrass
assay_summary: Test B pre/postemergence blackgrass
Type: in vivo, Alopecurus myosuroides
test_conditions: Rate 500 g/ha, Postemergence; scale 0 to 10, 0 no effect, 10 complete control
value_type: Plant response rating, Blackgrass
Response field accepts a number only; no unit should be typed.

>>> print(df.to_string())
                                   compound  target_of_assay  quantitative_readout
0  CC(C)N(C(=O)n1oc(=O)n(N2C(C)CCCC2C)c1=O)c1ccc(F)cc1 (stereo not shown)       blackgrass                     2
1  CC(C)N(C(=O)n1oc(=O)n(-c2ccc3ccccc3c2)c1=O)c1ccc(F)cc1       blackgrass                     0
2  Cc1nnsc1Cn1c(=O)on(C(=O)N(c2ccc(F)cc2)C(C)C)c1=O       blackgrass                     0
3  CC(C)C(C)n1c(=O)on(C(=O)N(c2ccccc2)C(C)C)c1=O (stereo not shown)       blackgrass                     6
4  Cc1c(-n2c(=O)on(C(=O)N(c3ccccc3)C(C)C)c2=O)ccc2ccccc12       blackgrass                     0
5  CC(C)N(C(=O)n1oc(=O)n(-c2ccc3ccccc3c2)c1=O)c1ccc(Cl)cc1       blackgrass                     0

Shift focus to the following entry.
Short answer please: Plant response rating, Blackgrass, blackgrass, entry Cc1ccc(N(C(=O)n2oc(=O)n(-c3ccc4ccccc4c3)c2=O)C(C)C)cc1
0
